target: human HSD1 (recombinant HSD1) (Homo sapiens); experiment: In vitro HSD1 activity inhibitory action, SPA of cortisone to cortisol conversion; conditions: recombinant human HSD1 0.1 μg/ml, 500 μM NADPH, 16 nM 3H cortisone, room temperature 90 min, read-out: hHSD1 IC50
Sequence (P28845 whole entry): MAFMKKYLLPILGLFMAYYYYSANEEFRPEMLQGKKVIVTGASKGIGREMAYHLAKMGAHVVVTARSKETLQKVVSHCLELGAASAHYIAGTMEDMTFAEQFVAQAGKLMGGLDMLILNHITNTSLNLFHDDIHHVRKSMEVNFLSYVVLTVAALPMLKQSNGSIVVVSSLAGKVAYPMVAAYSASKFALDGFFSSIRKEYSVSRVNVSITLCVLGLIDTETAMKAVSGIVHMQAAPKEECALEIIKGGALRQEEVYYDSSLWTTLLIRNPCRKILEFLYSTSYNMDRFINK
pIC50: −log10 of the molar value.
# Lookup of reported pIC50 keyed by entry

{"columns": ["chemical structure", "pIC50"],
 "data": [
  ["Cn1c(-c2ccc(Cl)nc2Cl)nnc1C1(c2ccccc2)CC1", "6.00 to 8.00"]
]}

Request: pIC50, test system human HSD1 (recombinant HSD1) (Homo sapiens), entry COC1(c2ccccc2)CCN(c2nnc(C3(c4ccccc4)CC3)n2C)CC1
6.00 to 8.00

Request: pIC50, test system human HSD1 (recombinant HSD1) (Homo sapiens), entry Cn1c(N2CCOCC2)nnc1C1(c2ccccc2)CC1
> 8.00

Request: pIC50, test system human HSD1 (recombinant HSD1) (Homo sapiens), entry Cn1c(C2CCCCC2)nnc1C1(c2ccccc2)CC1
> 8.00

Request: pIC50, test system human HSD1 (recombinant HSD1) (Homo sapiens), entry Cn1c(N2CCC(Oc3ccc(Cl)cc3Cl)CC2)nnc1C1(c2ccccc2)CC1
> 8.00
